Data provenance is patent US5770593A.

Target: protein kinase C
Test: Inhibition of protein kinase C (PK-C): in vitro method, 32P incorporation into H1 histone
Format: biochemical, rat
Conditions: protein kinase C enriched from Walker cells; 10 minutes at 32° C., pH 7.4; read-out: IC50, inhibition of protein kinase C (Examples 2-6)
pIC50: −log10 of the molar value.

Compound | pIC50
CCCCCCCCCCCCCCCCSCC(COC)COP(=O)([O-])OCC[N+](C)(C)C (centres unmarked) [ilmofosin] | 4.70
O=c1c(O)c(-c2ccc(O)c(O)c2)oc2cc(O)cc(O)c12 [quercetin, 3,3',4',5,7-pentahydroxyflavone] | 4.60

###

Target: protein kinase C
Assay: Inhibition of protein kinase C (PK-C): in vitro method, 32P incorporation into H1 histone
Format: biochemical, rat
Details: Table 1; 50% inhibition of the protein kinase C; read-out: inhibition of the protein kinase C IC50

Molecule | Operator | IC50, µM
O=c1c(O)c(-c2ccc(O)c(O)c2)oc2cc(O)cc(O)c12 [quercetin, 3,3',4',5,7-pentahydroxyflavone] | = | 25
N.N.[Cl][Pt][Cl] [cis-DDP, cis-diammine-dichloroplatinum (II)] | > | 1000
CCCCCCCCCCCCCCCCSCC(COC)COP(=O)([O-])OCC[N+](C)(C)C (stereo not drawn) [ilmofosin] | = | 0.56

###

Test system: Walker carcinoma cells
Assay: Inhibition of multiplication of Walker cells (cell proliferation), single active material or combination, Chou and Talalay analysis
Assay type: cell-based, rat
Conditions: Rattus norvegicus; Table 1; single active material, 48 hours; read-out: IC50 cell proliferation
pIC50: −log10 of the molar value.
Readout name: pIC50

Molecule | Value measured
CCCCCCCCCCCCCCCCCCOCC(COP(=O)([O-])OCC[N+](C)(C)C)OC (stereo not shown) [ET-18-OCH3] | 5.24

###

System: Walker carcinoma cells
Test: Inhibition of multiplication of Walker cells (cell proliferation), single active material or combination, Chou and Talalay analysis
Type: cell-based, rat
Conditions: Rattus norvegicus, 48 h, read-out: IC50 cell proliferation in combination with cis-DDP
pIC50: −log10 of the molar value.
Collected pIC50 values appear next to each entry.

Compound | pIC50
O=c1c(O)c(-c2ccc(O)c(O)c2)oc2cc(O)cc(O)c12 [quercetin, 3,3',4',5,7-pentahydroxyflavone] | 5.42
CN[C@@H]1C[C@H]2O[C@@](C)([C@@H]1OC)n1c3ccccc3c3c4c(c5c6ccccc6n2c5c31)C(=O)NC4 [staurosporin] | 8.40
